The binders listed here are annotated with their CRF2R EC50.
TARGET_UNDER_TEST: T1, CRF2R
T1 sequence (Q13324 whole entry, species assumed, looked up): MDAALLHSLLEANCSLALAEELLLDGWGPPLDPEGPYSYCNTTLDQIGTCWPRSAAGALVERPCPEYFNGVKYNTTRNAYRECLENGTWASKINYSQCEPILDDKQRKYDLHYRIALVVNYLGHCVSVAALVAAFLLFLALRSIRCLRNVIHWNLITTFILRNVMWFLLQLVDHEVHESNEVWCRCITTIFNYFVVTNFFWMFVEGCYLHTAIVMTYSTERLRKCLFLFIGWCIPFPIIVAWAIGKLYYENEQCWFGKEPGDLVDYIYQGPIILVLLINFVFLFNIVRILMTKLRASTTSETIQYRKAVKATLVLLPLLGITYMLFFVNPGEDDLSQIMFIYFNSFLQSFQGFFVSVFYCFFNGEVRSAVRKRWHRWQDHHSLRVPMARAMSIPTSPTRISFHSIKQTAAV
PROTOCOL: cell-based or functional assay
Ends that are not written are not given here.
MEASURED_PARAMETER: CRF2R EC50 (nM)

| BINDER | UNIT_OF_MEASURE | REPORTED |
| --- | --- | --- |
| ZGPPISIDLPLHLLRKMIEIEKQEKEKQQAANNALLLATI (C-terminal amide) [SEQ ID NO 241] | nM | 12.6 |
| IVLSLDVPIGLLQKVIEIEKQEKEKQQATTNARILARV-NH2 [SEQ ID NO 300] | nM | 17.1 |
| ZGPPISIDLPLHLLRKMIEIEKQEKEKQQATTNARLLDRV (C-terminal amide) [SEQ ID NO 239] | nM | 13.2 |
| ZGPPISIDLPFHLLRKMIEIEKQEKEKQQAANNALLLATI (C-terminal amide) [SEQ ID NO 229] | nM | 10.3 |
| ZGPPISIDLPQYLLRKMIEIEKQEKEKQQAANNALLLATI (C-terminal amide) [SEQ ID NO 227] | nM | 33.6 |
| ZGPPISIDLPVALLRKMIEIEKQEKEKQQAANNRLLLDTI (C-terminal amide) [SEQ ID NO 305] | nM | 35.5 |
